Target desc: PDGFRβ kinase, purified cytoplasmic domain PDGFR-b protein (Homo sapiens (Human))
Sequence (P09619 554-1106): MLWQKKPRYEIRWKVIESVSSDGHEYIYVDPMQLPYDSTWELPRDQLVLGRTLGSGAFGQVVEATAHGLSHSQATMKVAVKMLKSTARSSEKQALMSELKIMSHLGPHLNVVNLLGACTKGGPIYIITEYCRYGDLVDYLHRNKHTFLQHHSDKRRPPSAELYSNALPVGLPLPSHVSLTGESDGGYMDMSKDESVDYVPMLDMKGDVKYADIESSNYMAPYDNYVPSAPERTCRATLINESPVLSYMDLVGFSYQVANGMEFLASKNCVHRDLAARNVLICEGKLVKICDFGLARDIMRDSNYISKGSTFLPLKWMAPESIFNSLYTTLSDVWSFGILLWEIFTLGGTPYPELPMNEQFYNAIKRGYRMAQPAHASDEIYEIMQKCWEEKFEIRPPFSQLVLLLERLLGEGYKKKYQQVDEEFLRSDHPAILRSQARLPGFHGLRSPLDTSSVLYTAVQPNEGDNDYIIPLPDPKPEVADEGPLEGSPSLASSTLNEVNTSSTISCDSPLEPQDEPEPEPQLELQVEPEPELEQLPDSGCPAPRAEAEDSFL
Run description: PDGFRβ Kinase Assay
Type: biochemical
Measurement parameters: 36 μM ATP, poly-Glu-Tyr (4:1) substrate, 60 minute incubation at 30° C., ELISA read at 492 nm
Item-by-item account of pIC50
Lab note: report pIC50 as minus log10 of the concentration in molar units, number only.

Compound: Cc1cc(C(=O)Nc2cccc(C(C)C)c2)cc(N2CCc3nc(N)ncc3C2)c1 [Example 150]
pIC50: 7.23

Q: Given the compound CC(C)(C)C1CCC(NC(=O)c2cccc(N3CCc4nc(N)ncc4C3)c2)CC1 (stereo not shown) [Example 17] , write its reported pIC50.
Result: 6.61

Q: Given the compound Nc1ncc2c(n1)CCN(c1cccc(C(=O)Nc3cccc(C(F)(F)F)c3)c1)C2 [Example 5] , write its reported pIC50.
Result: 7.33
